Entries and their PBM binding z-score values follow.
test system: RARg homodimer (NR concentration 270 nM); experiment: PBM binding z-score (relative to random genomic background probes); higher = stronger binding; sequences stand for … in GC…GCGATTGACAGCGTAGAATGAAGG

record sequence: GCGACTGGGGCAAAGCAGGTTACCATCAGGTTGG
PBM binding z-score: 0.303
//
record sequence: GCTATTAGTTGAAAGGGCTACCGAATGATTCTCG
PBM binding z-score: 0.197
//
record sequence: GCAGACAGATGAAACGCAGGTAACTCAGGGTGGC
PBM binding z-score: -0.316
//
record sequence: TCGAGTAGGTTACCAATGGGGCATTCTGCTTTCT
PBM binding z-score: 0.393
//
record sequence: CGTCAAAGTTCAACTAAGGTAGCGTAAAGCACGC
PBM binding z-score: 6.39
//
record sequence: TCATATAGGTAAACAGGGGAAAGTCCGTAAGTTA
PBM binding z-score: 0.0765
//
record sequence: CCTACTGGGCCATTCAGAGGCCATTGATCATATG
PBM binding z-score: 0.424
//
record sequence: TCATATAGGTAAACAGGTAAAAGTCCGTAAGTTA
PBM binding z-score: 0.406
//
record sequence: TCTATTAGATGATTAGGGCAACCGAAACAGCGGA
PBM binding z-score: 0.575
//
record sequence: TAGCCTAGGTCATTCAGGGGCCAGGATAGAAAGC
PBM binding z-score: 4.6
//
record sequence: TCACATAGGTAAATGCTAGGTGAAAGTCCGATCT
PBM binding z-score: 0.189
//
record sequence: GGAACCAGGGCAAAGTTGATAGCATCTGTCGACG
PBM binding z-score: 1.41
//
record sequence: AGAATGAGGTTACCAAAAATCAGGGAAACGCTTG
PBM binding z-score: 1.53
//
record sequence: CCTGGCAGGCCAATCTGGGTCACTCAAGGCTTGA
PBM binding z-score: 1.5
//
record sequence: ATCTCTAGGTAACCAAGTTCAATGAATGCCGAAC
PBM binding z-score: 1.08
//
record sequence: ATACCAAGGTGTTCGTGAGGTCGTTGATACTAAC
PBM binding z-score: 0.278
//
record sequence: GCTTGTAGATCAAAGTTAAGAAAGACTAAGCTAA
PBM binding z-score: -0.292
//
record sequence: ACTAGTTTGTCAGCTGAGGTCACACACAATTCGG
PBM binding z-score: 3.7
//
record sequence: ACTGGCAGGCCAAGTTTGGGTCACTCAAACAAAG
PBM binding z-score: 1.97
//
record sequence: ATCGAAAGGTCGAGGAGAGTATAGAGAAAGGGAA
PBM binding z-score: 3.86

---

system: PPARg:RXRa 30nM:10nM, anti-RXR (NR concentration 30 nM, RXRa partner concentration 10 nM); test: PBM binding z-score (relative to random genomic background probes); higher = stronger binding; sequences stand for … in GC…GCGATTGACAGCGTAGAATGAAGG

record sequence: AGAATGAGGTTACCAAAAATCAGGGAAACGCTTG
PBM binding z-score: 0.857
--
record sequence: TCTATTAGTTCAAGGGCAACCGACGAGTCCGTTT
PBM binding z-score: 3.94
--
record sequence: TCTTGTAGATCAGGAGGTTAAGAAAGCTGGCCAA
PBM binding z-score: 2.55
--
record sequence: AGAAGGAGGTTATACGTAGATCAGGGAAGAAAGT
PBM binding z-score: 0.492
--
record sequence: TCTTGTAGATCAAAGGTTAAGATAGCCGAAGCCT
PBM binding z-score: 8.48
--
record sequence: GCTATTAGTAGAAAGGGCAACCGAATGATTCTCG
PBM binding z-score: 1.81
--
record sequence: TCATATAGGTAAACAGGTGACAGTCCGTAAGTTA
PBM binding z-score: 4.16
--
record sequence: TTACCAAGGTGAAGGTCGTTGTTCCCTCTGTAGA
PBM binding z-score: 2.07
--
record sequence: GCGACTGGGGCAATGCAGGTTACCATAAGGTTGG
PBM binding z-score: -0.113
